Target: red kidney bean PAP (rkbPAP) (Phaseolus vulgaris)
Construct: The rkbPAP was purified from red kidney bean according to the method described by Beck et al; from tissue; host or cells: red kidney bean seeds (Phaseolus vulgaris), local market
Sequence (P80366 23-459): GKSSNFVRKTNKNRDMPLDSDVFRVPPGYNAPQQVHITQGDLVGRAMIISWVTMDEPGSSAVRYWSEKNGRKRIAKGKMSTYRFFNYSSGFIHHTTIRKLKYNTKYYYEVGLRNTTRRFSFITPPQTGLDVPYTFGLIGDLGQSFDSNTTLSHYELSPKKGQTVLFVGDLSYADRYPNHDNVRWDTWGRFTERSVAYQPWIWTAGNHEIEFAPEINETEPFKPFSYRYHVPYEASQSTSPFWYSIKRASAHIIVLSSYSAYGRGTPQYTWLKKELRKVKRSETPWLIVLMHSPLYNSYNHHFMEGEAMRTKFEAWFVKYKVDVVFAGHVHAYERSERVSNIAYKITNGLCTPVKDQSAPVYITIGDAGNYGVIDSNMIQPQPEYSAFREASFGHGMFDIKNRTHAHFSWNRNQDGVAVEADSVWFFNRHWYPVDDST
Test: rkbPAP inhibition assay with p-NPP as substrate
Format: biochemical
Conditions: dissociation constant of enzyme–substrate–inhibitor complex (uncompetitive), pH 4.9; read-out: KI
List of Ki values.
Give the value, in units of µM, as a plain number.

CCCCCCCCCCCCCCCCS(=O)(=O)NC(c1ccc(OC)cc1)P(=O)(O)O (centres unmarked) ... 8.2

Kindly consider the entry below.
Request: Notebook: pull reported Ki for red kidney bean PAP (rkbPAP) (Phaseolus vulgaris), entry CCCCCCCCCCCCS(=O)(=O)NC(c1ccc(OC)cc1)P(=O)(O)O (centres unmarked)
Response: 103
